# PROCEDURE_DETAILS: Plasma clearance in Sprague-Dawley rat at 1 mg/kg, iv and 3 mg/kg, po by LC/MS analysis
# Format: ADME, organism-based
QUANTITY_KIND: clearance (mL/min/kg)

1. CC(=O)N1CCN(c2ccc(OCc3cc4cnc(C#N)nc4n3CCC3CCC(F)(F)CC3)cc2)CC1 = 51.7

1: CC(=O)N1CCN(c2ccc(OCc3cc4cnc(C#N)nc4n3CCC3CCCCC3)cc2)CC1
2: CC(=O)N1CCN(c2ccc(OCc3cc4cnc(C#N)nc4n3CCC3CCCCC3)c(F)c2)CC1
Lookup: Higher clearance between 1 and 2 ? Choose, then provide that item's label.
Found: 1
(1: 65 mL/min/kg, 2: 45 mL/min/kg)

----------
# SUBJECT_OF_TEST: Procathepsin L (Homo sapiens)
# Sequence (P07711 whole entry): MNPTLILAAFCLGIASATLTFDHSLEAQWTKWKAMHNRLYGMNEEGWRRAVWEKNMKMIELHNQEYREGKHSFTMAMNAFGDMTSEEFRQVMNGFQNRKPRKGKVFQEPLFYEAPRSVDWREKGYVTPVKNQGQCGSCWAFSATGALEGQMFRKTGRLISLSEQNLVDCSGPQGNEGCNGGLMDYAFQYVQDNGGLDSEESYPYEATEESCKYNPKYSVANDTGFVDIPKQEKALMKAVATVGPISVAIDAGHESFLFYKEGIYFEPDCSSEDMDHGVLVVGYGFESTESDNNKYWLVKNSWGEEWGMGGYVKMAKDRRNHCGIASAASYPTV
# PROCEDURE_DETAILS: Inhibition of human recombinant cathepsin L by fluorescence assay
pIC50: −log10 of the molar value.
QUANTITY_KIND: pIC50

1) CC(=O)N1CCN(c2ccc(OCc3cc4cnc(C#N)nc4n3CCC3CCCCC3)cc2)CC1 = 5.28
2) CC(=O)N1CCN(c2ccc(OCc3cc4cnc(C#N)nc4n3CCC3CCCCC3)c(F)c2)CC1 = 5.17

1: CC(=O)N1CCN(c2ccc(OCc3cc4cnc(C#N)nc4n3CCC3CCC(F)(F)CC3)cc2)CC1
2: CC(=O)N1CCN(c2ccc(OCc3cc4cnc(C#N)nc4n3CCC3CCCC3)cc2)CC1
Lookup: Parameter metric = pIC50. Return the lower-valued option from 1 and 2 . State the label of the item chosen.
Found: 1

----------
# SUBJECT_OF_TEST: Cathepsin S (Mus musculus)
# Sequence (O70370 whole entry): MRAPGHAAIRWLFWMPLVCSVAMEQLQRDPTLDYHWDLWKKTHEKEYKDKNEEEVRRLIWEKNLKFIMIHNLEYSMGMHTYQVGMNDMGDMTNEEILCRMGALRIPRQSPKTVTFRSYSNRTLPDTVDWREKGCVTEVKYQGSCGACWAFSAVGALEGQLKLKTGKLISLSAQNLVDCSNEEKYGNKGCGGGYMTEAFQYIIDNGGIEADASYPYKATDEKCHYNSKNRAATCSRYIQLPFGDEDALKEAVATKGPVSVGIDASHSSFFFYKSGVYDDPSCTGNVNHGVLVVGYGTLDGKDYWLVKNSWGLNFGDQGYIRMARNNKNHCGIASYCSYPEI
QUANTITY_KIND: IC50 (nM)
Return type: number; implicit unit nM.

Lookup: Give the measured IC50 for CC(=O)N1CCN(c2ccc(OCc3cc4cnc(C#N)nc4n3CCC3CCCCC3)c(F)c2)CC1
Found: 14

----------
# PROCEDURE_DETAILS: Cmax in Sprague-Dawley rat at 3 mg/kg, po by LC/MS analysis
# Assay type: ADME, organism-based
# Set-up: dose 3 mg/kg, route oral
# TEST_SETTINGS: in vivo
QUANTITY_KIND: Cmax (nM)

1. CC(=O)N1CCN(c2ccc(OCc3cc4cnc(C#N)nc4n3CCC3CCCCC3)c(F)c2)CC1 = 30

P: CC(=O)N1CCN(c2ccc(OCc3cc4cnc(C#N)nc4n3CCC3CCC(F)(F)CC3)cc2)CC1
Q: CC(=O)N1CCN(c2ccc(OCc3cc4cnc(C#N)nc4n3CCC3CCCCC3)cc2)CC1
Lookup: Between the entries labeled P and Q , whose measured Cmax is lower? Respond using the label that marks the chosen record.
Found: P

----------
# SUBJECT_OF_TEST: Procathepsin L (Homo sapiens)
# PROCEDURE_DETAILS: Inhibition of human recombinant cathepsin L by fluorescence assay
QUANTITY_KIND: IC50

Examples with their reported IC50 follow.
1. CC(=O)N1CCCN(c2ccc(OCc3cc4cnc(C#N)nc4n3CCC3CCCCC3)cc2)CC1 = > 1000 nM
2. CC(=O)N1CCN(c2ccc(OCc3cc4cnc(C#N)nc4n3CCc3ccc(Cl)cc3)cc2)CC1 = > 1000 nM
3. CC(=O)N1CCN(c2ccc(OCc3cc4cnc(C#N)nc4n3CCC3CCCCCC3)cc2)CC1 = > 2000 nM

Could you now consider this next molecule?
Lookup: Give the value of IC50 reported for the following: CC(=O)N1CCN(c2ccc(OCc3cc4cnc(C#N)nc4n3CCC3CCCCC3)cc2F)CC1
Found: > 1000 nM
